System: vancomycin-resistant enterococci (VRE) cells, VRE 5
Assay: MIC in vitro broth micro-dilution assay, VRE 5
Type: cell-based
Settings: Enterococcus, VRE; lowest concentration to fully inhibit visible growth (OD600); clinical isolate, ampicillin, ciprofloxacin, vancomycin and linezolid resistant; read-out: in vitro susceptibility (MIC) VRE 5
Description: Bacterial susceptibility was established through an in vitro cell-based broth micro-dilution assay. […] 1.11 The optical density of bacterial cells in the ON culture was measured at wavelength 600 nm (OD600). […] 1.12 Then the OD600 was re-measured to make certain that it was between 0.08 and 0.13. […]
measurement_type: MIC (µg/mL)

[
  {
    "compound": "C=C[C@]1(C)C[C@@H](OC(=O)Cn2cc(-c3ccc(CN4C(=O)c5ccccc5C4=O)cc3)nn2)[C@]2(C)[C@H](C)CC[C@]3(CCC(=O)[C@H]32)[C@@H](C)[C@@H]1O",
    "measurement_type": "MIC",
    "lt_gt_eq": ">",
    "measurement": 8
  },
  {
    "compound": "C=C[C@]1(C)C[C@@H](OC(=O)Cn2cc(-c3ccc(Cn4cc(C)c(=O)[nH]c4=O)cc3)nn2)[C@]2(C)[C@H](C)CC[C@]3(CCC(=O)[C@H]32)[C@@H](C)[C@@H]1O",
    "measurement_type": "MIC",
    "lt_gt_eq": "=",
    "measurement": 0.5
  },
  {
    "compound": "C=C[C@]1(C)C[C@@H](OC(=O)Cn2cc(-c3ccc(Cn4cnc5c(N)ncnc54)c(OC)c3)nn2)[C@]2(C)[C@H](C)CC[C@]3(CCC(=O)[C@H]32)[C@@H](C)[C@@H]1O",
    "measurement_type": "MIC",
    "lt_gt_eq": "=",
    "measurement": 0.12
  },
  {
    "compound": "C=C[C@]1(C)C[C@@H](OC(=O)Cn2cc(-c3ccc(Cn4cnc5c(N6CCNCC6)ncnc54)cc3)nn2)[C@]2(C)[C@H](C)CC[C@]3(CCC(=O)[C@H]32)[C@@H](C)[C@@H]1O",
    "measurement_type": "MIC",
    "lt_gt_eq": "=",
    "measurement": 0.12
  },
  {
    "compound": "C=C[C@]1(C)C[C@@H](OC(=O)CSC2CC[C@@H](N)C[C@H]2O)[C@]2(C)[C@H](C)CC[C@]3(CCC(=O)[C@H]32)[C@@H](C)[C@@H]1O.CC(=O)O (stereo partly shown) [Lefamulin.Ac, reference compound]",
    "measurement_type": "MIC",
    "lt_gt_eq": "=",
    "measurement": 0.12
  },
  {
    "compound": "C=C[C@]1(C)C[C@@H](OC(=O)Cn2cc(-c3ccc(Cn4cnc5c(N6CCNCC6)ncnc54)nc3)nn2)[C@]2(C)[C@H](C)CC[C@]3(CCC(=O)[C@H]32)[C@@H](C)[C@@H]1O",
    "measurement_type": "MIC",
    "lt_gt_eq": "=",
    "measurement": 0.12
  },
  {
    "compound": "C=C[C@]1(C)C[C@@H](OC(=O)Cn2cc(-c3ccc(Cn4cnc5c(N)ncnc54)c(O)c3)nn2)[C@]2(C)[C@H](C)CC[C@]3(CCC(=O)[C@H]32)[C@@H](C)[C@@H]1O",
    "measurement_type": "MIC",
    "lt_gt_eq": "=",
    "measurement": 0.25
  },
  {
    "compound": "C=C[C@]1(C)C[C@@H](OC(=O)Cn2cc(-c3ccc(Cn4cnc5c(N)ncnc54)nc3)nn2)[C@]2(C)[C@H](C)CC[C@]3(CCC(=O)[C@H]32)[C@@H](C)[C@@H]1O",
    "measurement_type": "MIC",
    "lt_gt_eq": "=",
    "measurement": 0.12
  },
  {
    "compound": "C=C[C@]1(C)C[C@@H](OC(=O)Cn2cc(-c3cccc(Nc4ncnc5[nH]cnc45)c3)nn2)[C@]2(C)[C@H](C)CC[C@]3(CCC(=O)[C@H]32)[C@@H](C)[C@@H]1O",
    "measurement_type": "MIC",
    "lt_gt_eq": "=",
    "measurement": 0.25
  },
  {
    "compound": "C=C[C@]1(C)C[C@@H](OC(=O)Cn2cc(-c3cc(C#N)ccc3O)nn2)[C@]2(C)[C@H](C)CC[C@]3(CCC(=O)[C@H]32)[C@@H](C)[C@@H]1O",
    "measurement_type": "MIC",
    "lt_gt_eq": "=",
    "measurement": 1
  },
  {
    "compound": "C=C[C@]1(C)C[C@@H](OC(=O)Cn2cc(-c3ccc(Cn4cnc5c(N)nc(N)nc54)cc3)nn2)[C@]2(C)[C@H](C)CC[C@]3(CCC(=O)[C@H]32)[C@@H](C)[C@@H]1O",
    "measurement_type": "MIC",
    "lt_gt_eq": "=",
    "measurement": 0.25
  },
  {
    "compound": "C=C[C@]1(C)C[C@@H](OC(=O)Cn2cc(-c3ccc(CO)cc3)nn2)[C@]2(C)[C@H](C)CC[C@]3(CCC(=O)[C@H]32)[C@@H](C)[C@@H]1O",
    "measurement_type": "MIC",
    "lt_gt_eq": "=",
    "measurement": 1
  }
]
